Recorded glass transition temperature, one value per entry.
Returns: string containing the number followed by the unit.

Check out these entries, answers already filled in.
• *Oc1ccc(C(CCC)(CCC)c2ccc(OC(*)=O)c(C)c2)cc1C (repeat unit) = 101.00 °C
• *c1ccc2c(c1)C(=O)N(c1cc(N3C(=O)c4ccc(C(*)(C(F)(F)F)C(F)(F)F)cc4C3=O)c(O)cc1O)C2=O (repeat unit) = 324.00 °C
• *Oc1ccc(CC(NC(=O)CCc2ccc(OC(=O)CCCCC(*)=O)cc2)C(=O)OCCCCCCCCCCCC)cc1 (repeat unit) = 22.00 °C
• *c1ccc2oc(-c3cc(OCCCCCCCCCC)c(-c4nc5cc(C(*)(C(F)(F)F)C(F)(F)F)ccc5o4)cc3OCCCCCCCCCC)nc2c1 (repeat unit) = 94.00 °C
• *CC(O)CN(C)S(=O)(=O)c1cccc(S(=O)(=O)N(C)CC(O)COc2ccc(C(C)(C)c3ccc(O*)cc3)cc2)c1 (repeat unit) = 76.00 °C
• *C(=O)Nc1ccc(Oc2ccc(Oc3ccc(NC(=O)c4ccc5c(c4)C(=O)N(c4ccc(Oc6ccc(N7C(=O)c8ccc(*)cc8C7=O)cc6)cc4)C5=O)cc3)cc2)cc1 (repeat unit) = 260.00 °C

For the compound *O[Si](C)(C)[Si](*)(C)C (repeat unit) , what glass transition temperature is on record? -119.00 °C

Where do these numbers come from? They come from the PolyMetriX glass transition set.
